System: Huh-7
Assay: Growth inhibition of human HuH7 cells after 48 hrs by MTT assay
Assay type: functional, cell-based
Conditions: Huh-7, 48 h
pIC50: −log10 of the molar value.
Label rule, in plain words: pIC50 of 5 and up is fulfilled, under 5 is not fulfilled.

Completed entries (count: 10):
Cc1ccc(CNC(=O)/C=C/c2coc3cc(O)ccc3c2=O)cc1
not fulfilled
COc1ccc(NC(=O)/C=C/c2coc3cc(OC)ccc3c2=O)cc1
not fulfilled
O=C(/C=C/c1coc2cc(O)ccc2c1=O)NCc1ccc(F)cc1
not fulfilled
O=c1[nH]cc(F)c(=O)[nH]1
not fulfilled
COc1ccc2c(=O)c(/C=C/C(=O)Nc3ccccc3Cl)coc2c1
not fulfilled
COc1ccc(NC(=O)/C=C/c2coc3cc(O)ccc3c2=O)cc1
not fulfilled
O=C(/C=C/c1coc2cc(O)ccc2c1=O)NCc1ccccc1
fulfilled
COc1ccc2c(=O)c(/C=C/C(=O)NCc3ccc(C)cc3)coc2c1
not fulfilled
COc1ccc2c(=O)c(/C=C/C(=O)Nc3ccc(C)cc3)coc2c1
not fulfilled
COc1ccc2c(=O)c(/C=C/C(=O)Nc3ccccc3C)coc2c1
not fulfilled

**Query** Does pIC50 meet or surpass 5 for COc1ccc2c(=O)c(/C=C/C(=O)Nc3ccc(F)cc3)coc2c1 ?
**Result** not fulfilled

**Query** Answer whether pIC50 of O=C(/C=C/c1coc2cc(O)ccc2c1=O)Nc1ccccc1 is greater than or equal to 5.
**Result** fulfilled

**Query** Is the recorded value of pIC50 equal to or greater than 5 for this compound? COc1ccc2c(=O)c(/C=C/C(=O)Nc3ccccc3OC)coc2c1
**Result** not fulfilled

**Query** # bool: pIC50 of CCOc1ccc(NC(=O)/C=C/c2coc3cc(OC)ccc3c2=O)cc1 >= 5
**Result** fulfilled

**Query** Does the reported pIC50 for COc1ccc2c(=O)c(/C=C/C(=O)Nc3ccc(Cl)cc3)coc2c1 fall at or above the 5 mark?
**Result** not fulfilled

**Query** API: above_or_equal(metric=pIC50, cutoff=5) for item COc1ccc2c(=O)c(/C=C/C(=O)NCc3ccc(F)cc3F)coc2c1
**Result** not fulfilled

* * *

Tested on: Hepatitis B virus
Assay: Antiviral activity against HBV infected in human HepG2(2.2.15) cells assessed as inhibition of viral replication after 9 days by fluorescence PCR method
Assay type: functional, organism-based
Settings: HepG2 2.2.15, 216 h
readout: pIC50
Give bare numbers, as −log10 of the molar value.

Parameters: items (list). Returns: pIC50 for each item.
1. COc1ccc2c(=O)c(/C=C/C(=O)NCc3ccccc3F)coc2c1
2. COc1ccc(NC(=O)/C=C/c2coc3cc(OC)ccc3c2=O)cc1
3. COc1ccc(CNC(=O)/C=C/c2coc3cc(OC)ccc3c2=O)cc1
4. COc1ccc2c(=O)c(/C=C/C(=O)Nc3ccc(Cl)cc3)coc2c1
5. COc1ccc2c(=O)c(/C=C/C(=O)NCc3cccc(F)c3)coc2c1
6. COc1ccc2c(=O)c(/C=C/C(=O)NCc3ccccc3)coc2c1
7. COc1ccc2c(=O)c(/C=C/C(=O)Nc3ccc(C)cc3)coc2c1

**Result**
1: 4.16; 2: 4.85; 3: 4.61; 4: 4.17; 5: 4.12; 6: 4.25; 7: 4.55

Look at each compound and report its pIC50.
1. COc1ccc2c(=O)c(/C=C/C(=O)NCc3ccc(C)cc3)coc2c1
2. O=C(/C=C/c1coc2cc(O)ccc2c1=O)NCc1ccc(F)cc1F
3. COc1ccc(NC(=O)/C=C/c2coc3cc(O)ccc3c2=O)cc1
4. COc1ccc2c(=O)c(/C=C/C(=O)NCc3ccc(F)cc3)coc2c1

**Result**
1. 4.27
2. 4.63
3. 5.15
4. 4.95

Batch request: pIC50 per item, same order as input.
1. COc1ccc2c(=O)c(/C=C/C(=O)NCc3ccc(F)cc3F)coc2c1
2. O=C(/C=C/c1coc2cc(O)ccc2c1=O)NCc1ccc(F)cc1

**Result**
[4.43, 4.48]
